The reported measurements were obtained from patent US20200239573A1.

Items are presented alongside their recorded kon.
- assayedTarget: T1, Strep tagged recombinant human PD-1 (human, UniProt Q15116 25-170, limits assumed)
- T1 construct: the whole entry is named; also called strep tagged human PD-1; not shown: Strep tag
- T1 sequence (Q15116 25-170 limits assumed): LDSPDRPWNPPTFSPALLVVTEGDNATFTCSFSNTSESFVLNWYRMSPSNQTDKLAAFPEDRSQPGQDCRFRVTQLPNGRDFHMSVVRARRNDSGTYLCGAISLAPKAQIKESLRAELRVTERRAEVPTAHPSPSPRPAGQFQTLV
- assayNotes: SPR Biacore T200, strep-tagged PD-1 amine-coupled, single cycle kinetics
# number only, unit M⁻¹ s⁻¹ dropped from output

Humabody® 1.104 (VHH, human VH single domain antibody) VHH: EVQLVESGGGLVKPGGSLRLSCAASGFTFSDESFTWMRQAPGKGLEWVSYISSGGGVKFYTDSVKGRFTISRDNAKNSLYLQMNSLRAEDTAVYYCAREAPLRLGESPHDAFDISGQGTMVTVSS	780000

# next binder below
Please report the measured kon for Humabody® 1.80 (VHH, human VH single domain antibody) VHH: EVQLVESGGGLVKPGGSLRLSCAASGFTFSDSSMTWMRQAPGKGLEWVSYISSGGGVKFYADSVKGRFTISRDNAKNSLYLQMNSLRAEDTAVYYCAREAPLRLGESPHDAFDISGQGTMVTVSS 1.76e+06
